Tested system: T1, recombinant Cad-11 EC1 human IgG1 fusion protein (R&D Systems Cat. No. 1790-CA-050) (human, UniProt P55287 54-617, limits assumed)
T1 construct: bought; also called recombinant human Cad-11 EC1; recombinant human Cad-11 fusion protein; not shown: human IgG1 part
T1 sequence: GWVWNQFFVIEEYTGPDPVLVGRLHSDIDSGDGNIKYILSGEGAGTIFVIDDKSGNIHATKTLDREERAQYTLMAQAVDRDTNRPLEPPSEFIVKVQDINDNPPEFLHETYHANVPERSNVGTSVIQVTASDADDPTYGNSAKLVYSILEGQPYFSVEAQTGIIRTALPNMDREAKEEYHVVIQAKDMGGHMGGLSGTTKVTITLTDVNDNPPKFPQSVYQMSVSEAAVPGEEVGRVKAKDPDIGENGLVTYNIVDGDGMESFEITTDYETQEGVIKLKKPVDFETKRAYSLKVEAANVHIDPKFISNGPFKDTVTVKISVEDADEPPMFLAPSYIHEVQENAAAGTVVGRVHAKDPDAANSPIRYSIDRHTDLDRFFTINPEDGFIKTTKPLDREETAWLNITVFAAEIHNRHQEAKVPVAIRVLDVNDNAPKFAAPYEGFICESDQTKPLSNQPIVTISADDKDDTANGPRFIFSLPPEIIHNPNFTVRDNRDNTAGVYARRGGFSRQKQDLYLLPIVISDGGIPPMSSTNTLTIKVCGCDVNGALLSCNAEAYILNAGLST
Test method notes: competition ELISA on coated recombinant human Cad-11 EC1 fusion protein against biotinylated SYN0012 (0.1 µg/ml)
Quantity: IC50 (read off the curve)

Assign IC50 (read off the curve) to the following record: SDP031 humanized anti-Cad-11 EC1 antibody (Vκ1/VH3) (antibody, IgG4, V domains shown, humanized IgG4 (S241P), kappa) VH: EVQLVQSGAEVKKPGASVKISCKASGYSFTGYFMNWVRQAPGQGLEWIGRINPYTGDTFYNQKFKGRATLTVDKSTSTAYMELSSLRSEDTAVYYCGRLGSRYWYFDVWGQGTTVTVSS VL: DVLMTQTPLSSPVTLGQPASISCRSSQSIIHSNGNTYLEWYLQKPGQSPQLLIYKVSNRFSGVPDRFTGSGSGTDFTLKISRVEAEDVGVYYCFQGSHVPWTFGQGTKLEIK
~0.2 µg/mL
